# Tested on: M14 melanoma
# PROCEDURE_DETAILS: NCI tumour cell line growth inhibition, 48 h
ENDPOINT: GI50

[[record]]
compound = "O=C(c1ccccc1)c1c(C(F)(F)F)n([O-])c2cc(C(F)(F)F)ccc2[n+]1=O"
assay_target = "M14 melanoma"
endpoint = "GI50"
endpoint_value = "1680 nM"

[[record]]
compound = "CCCCCCCCCCCCCCCCOP(=O)([O-])OCC[N+](C)(C)C"
assay_target = "M14 melanoma"
endpoint = "GI50"
endpoint_value = "1560 nM"

[[record]]
compound = "CN(C)CCCC1(c2ccc(F)cc2)OCc2cc(-c3cc4ccccc4s3)ccc21 (stereo not drawn)"
assay_target = "M14 melanoma"
endpoint = "GI50"
endpoint_value = "1590 nM"

